biological target: Leukotriene B4 receptor 1 (Homo sapiens) (UniProt Q15722); assay: Inhibition of [3H]LTB4 binding to leukotriene B4 receptor from human peripheral neutrophils (PMN), at a concentration of 1 uM
Sequence (Q15722 whole entry): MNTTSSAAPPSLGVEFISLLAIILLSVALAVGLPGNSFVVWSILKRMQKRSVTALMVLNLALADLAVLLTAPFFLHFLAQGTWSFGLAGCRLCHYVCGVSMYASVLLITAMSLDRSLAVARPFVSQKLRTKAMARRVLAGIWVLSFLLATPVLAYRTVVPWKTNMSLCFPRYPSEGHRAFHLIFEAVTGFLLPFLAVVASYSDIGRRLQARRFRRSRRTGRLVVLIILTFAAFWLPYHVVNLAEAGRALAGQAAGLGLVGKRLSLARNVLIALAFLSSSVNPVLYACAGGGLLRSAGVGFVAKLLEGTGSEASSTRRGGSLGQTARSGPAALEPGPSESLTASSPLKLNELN
observable: inhibition

                                    molecule                                       tgt  measured
 0            CC(=O)c1cc(C=O)c(OCCCCC#N)cc1O  Leukotriene B4 receptor 1 (Homo sapiens) (UniProt Q15722)        3%
 1   CCc1cc(C(C)=O)c(O)cc1OCc1ccc(C(=O)O)cc1  Leukotriene B4 receptor 1 (Homo sapiens) (UniProt Q15722)        0%
 2                   C=CCc1ccc(O)cc1OCCCCC#N  Leukotriene B4 receptor 1 (Homo sapiens) (UniProt Q15722)        9%
 3     CCc1cc(C(C)=O)c(O)cc1OCCCCCC(C)(C)C#N  Leukotriene B4 receptor 1 (Homo sapiens) (UniProt Q15722)       53%
 4       CCc1cc(C(C)=O)c(O)cc1OCCCC(C)(C)C#N  Leukotriene B4 receptor 1 (Homo sapiens) (UniProt Q15722)       46%
 5          CSCc1cc(C(C)=O)c(O)cc1OCCCCCCC#N  Leukotriene B4 receptor 1 (Homo sapiens) (UniProt Q15722)       64%
 6    CCc1cc(C(C)=O)c(O)cc1OCCCC(C)(C)C(N)=O  Leukotriene B4 receptor 1 (Homo sapiens) (UniProt Q15722)       51%
 7       CCCc1cc(C(C)=O)c(O)c(CCC)c1OCCCCC#N  Leukotriene B4 receptor 1 (Homo sapiens) (UniProt Q15722)        0%
 8  CCc1cc(C(C)=O)c(O)cc1OCCCCCC(C)(C)c1nn[nH]n1  Leukotriene B4 receptor 1 (Homo sapiens) (UniProt Q15722)       93%
 9  CC(=O)c1cc(CC(C)O)c(OCCCCC#N)cc1O (configuration not stated)  Leukotriene B4 receptor 1 (Homo sapiens) (UniProt Q15722)        6%
10         C=CCc1cc(C(C)=O)c(O)cc1OCCCCCCC#N  Leukotriene B4 receptor 1 (Homo sapiens) (UniProt Q15722)       63%
11           C=CCc1cc(C(C)=O)c(O)cc1OCCCCCCC  Leukotriene B4 receptor 1 (Homo sapiens) (UniProt Q15722)        8%
12   C=CCc1cc(C(C)=O)c(O)cc1OCCCCCC(=O)N(C)C  Leukotriene B4 receptor 1 (Homo sapiens) (UniProt Q15722)       54%
13       C=CCc1cc(C(C)=O)c(O)cc1OCCCCCCCCC#N  Leukotriene B4 receptor 1 (Homo sapiens) (UniProt Q15722)       50%
14       CCc1cc(C(C)=O)c(O)cc1OCCCCCCC(=O)NC  Leukotriene B4 receptor 1 (Homo sapiens) (UniProt Q15722)       54%
15          C=CCc1cc(C(C)=O)c(OC)cc1OCCCCC#N  Leukotriene B4 receptor 1 (Homo sapiens) (UniProt Q15722)        8%
16            CCc1cc(C(C)=O)c(O)cc1OCCCCCCSC  Leukotriene B4 receptor 1 (Homo sapiens) (UniProt Q15722)       14%
